experimental_target: OX2R (Homo sapiens)
Construct: expressed in transfected cells; host or cells: CHO (Chinese hamster ovary) cells constitutively expressing the OX2R gene and NFAT-luciferase (CHOOX2R)
Sequence (O43614 1-444): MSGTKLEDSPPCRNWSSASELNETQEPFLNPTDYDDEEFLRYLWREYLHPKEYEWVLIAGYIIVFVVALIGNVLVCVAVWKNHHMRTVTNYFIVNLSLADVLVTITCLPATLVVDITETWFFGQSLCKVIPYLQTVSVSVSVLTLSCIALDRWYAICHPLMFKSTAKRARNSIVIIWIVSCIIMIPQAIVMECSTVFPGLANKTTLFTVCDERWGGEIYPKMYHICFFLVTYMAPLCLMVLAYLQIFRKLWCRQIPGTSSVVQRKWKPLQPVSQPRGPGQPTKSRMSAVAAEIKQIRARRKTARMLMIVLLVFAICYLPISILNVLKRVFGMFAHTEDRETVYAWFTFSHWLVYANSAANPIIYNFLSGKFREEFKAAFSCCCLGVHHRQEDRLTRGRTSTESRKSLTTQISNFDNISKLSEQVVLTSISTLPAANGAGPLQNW
experiment_description: Evaluation of agonist activity against OX2R (CHOOX2R cells, Fura2AM fluorescence, FDSS3000)
Format: cell-based
details: test compound 0.1 μM; CHOOX2R cells; relative to orexin-A as full agonist (100%)
Binarize Response (0.1 μM (%)) at 20%; below is label 1, at or above is label 0.

>  <structure_as_smiles>
COc1ccccc1C(=O)NCCNc1cccc(NS(=O)(=O)c2cc(-c3cccc(N)c3)ccc2OC)c1

>  <label_value>
label 1

$$$$
>  <structure_as_smiles>
COc1cccc(C(=O)NCCNc2cccc(NS(=O)(=O)c3cc(-c4cccc(C(=O)N5CCCC5)c4)ccc3OC)c2)c1

>  <label_value>
label 1

$$$$
>  <structure_as_smiles>
COc1ccc(-c2cccc(C(=O)N(C)C)c2)cc1S(=O)(=O)Nc1cccc(NCCNC(=O)c2ccnn2C)c1

>  <label_value>
label 1

$$$$
>  <structure_as_smiles>
COc1ccc(-c2cccc(C(=O)N(C)C)c2)cc1S(=O)(=O)Nc1cccc(NCCNC(=O)c2nccn2C)c1

>  <label_value>
label 1

$$$$
>  <structure_as_smiles>
COc1ccc(-c2cccc(C(=O)N(C)C)c2)cc1S(=O)(=O)Nc1cccc(NCCNC(=O)c2ncccc2Cl)c1

>  <label_value>
label 1

$$$$
>  <structure_as_smiles>
COc1cccc(C(=O)NCCNc2cccc(NS(=O)(=O)c3cc(-c4ncccc4F)ccc3OC)c2)c1

>  <label_value>
label 1

$$$$
>  <structure_as_smiles>
COc1ccc(-c2cccc(C(=O)N3CCC3)c2)cc1S(=O)(=O)Nc1cccc(NCCNC(=O)c2cccc(F)c2)c1

>  <label_value>
label 1

$$$$
>  <structure_as_smiles>
COc1ccc(-c2cccc(C(=O)N(C)C)c2)cc1S(=O)(=O)Nc1cccc(NCCNC(=O)c2c(F)cccc2F)c1

>  <label_value>
label 1

$$$$
>  <structure_as_smiles>
COc1ccc(-c2cccc(C(=O)N(C)C)c2)cc1S(=O)(=O)Nc1cccc(NCCNC(=O)c2cn(C)cn2)c1

>  <label_value>
label 1

$$$$
>  <structure_as_smiles>
COc1ccccc1C(=O)NCCNc1cccc(NS(=O)(=O)c2cc(-c3cccc(C(=O)N(C)C)c3)ccc2OC)c1

>  <label_value>
label 0

$$$$
>  <structure_as_smiles>
COc1ccccc1C(=O)NCCNc1cccc(NS(=O)(=O)c2cc(-c3cccc(C(=O)NCCO)c3)ccc2OC)c1

>  <label_value>
label 1

$$$$
>  <structure_as_smiles>
COc1ccc(-c2cccc(C(=O)N3CCCCC3)c2)cc1S(=O)(=O)Nc1cccc(NCCNC(=O)c2ccccc2F)c1

>  <label_value>
label 0

$$$$
>  <structure_as_smiles>
COc1ccc(-c2cccc(C(=O)N3CCC3)c2)cc1S(=O)(=O)Nc1cccc(NCCNC(=O)c2c(OC)cccc2OC)c1

>  <label_value>
label 1

$$$$
>  <structure_as_smiles>
COc1ccc(-c2cccc(C(=O)N3CCC3)c2)cc1S(=O)(=O)Nc1cccc(NCCNC(=O)c2ccccc2Cl)c1

>  <label_value>
label 1

$$$$
>  <structure_as_smiles>
COc1ccccc1C(=O)NCCNc1cccc(NS(=O)(=O)c2cc(-c3ccccc3C(=O)N(C)C)ccc2OC)c1

>  <label_value>
label 1

$$$$
>  <structure_as_smiles>
COc1ccc(-c2cccc(C(=O)N(C)C)c2)cc1S(=O)(=O)Nc1cccc(NCCNC(=O)c2cc(F)ccc2F)c1

>  <label_value>
label 0

$$$$

----------
experimental_target: OX2R (Homo sapiens, UniProt O43614)
Construct: expressed in transfected cells; host or cells: CHO (Chinese hamster ovary) cells constitutively expressing the OX2R gene and NFAT-luciferase (CHOOX2R)
experiment_description: Evaluation of agonist activity against OX2R (CHOOX2R cells, Fura2AM fluorescence, FDSS3000)
Type: cell-based
details: test compound 0.1 μM; CHOOX2R cells; relative to orexin-A as full agonist (100%)
Classification field: enter True for Response (0.1 μM (%)) values not below 40%, False for values below it.

>  <structure_as_smiles>
COc1ccccc1C(=O)NCCNc1cccc(NS(=O)(=O)c2cc(-c3cccc(C(=O)N4CCCCC4)c3)ccc2OC)c1

>  <label_value>
False

$$$$
>  <structure_as_smiles>
COc1ccc(-c2cccc(C(=O)N(C)C)c2)cc1S(=O)(=O)Nc1cccc(NCCNC(=O)c2sccc2C)c1

>  <label_value>
False

$$$$
>  <structure_as_smiles>
COc1cccc(C(=O)NCCNc2cccc(NS(=O)(=O)c3cc(-c4cccc(C(=O)N(C)C)c4)ccc3OC)c2)c1

>  <label_value>
True

$$$$
>  <structure_as_smiles>
COc1ccc(-c2cccc(C(=O)N(C)C)c2)cc1S(=O)(=O)Nc1cccc(NCCNC(=O)c2cccnc2Cl)c1

>  <label_value>
False

$$$$
>  <structure_as_smiles>
COc1ccc(-c2cccc(C(=O)N(C)C)c2)cc1S(=O)(=O)Nc1cccc(NCCNC(=O)c2cnccc2Cl)c1

>  <label_value>
False

$$$$
>  <structure_as_smiles>
COc1cccc(-c2ccc(OC)c(S(=O)(=O)Nc3cccc(NCCNC(=O)c4ccccc4OC)c3)c2)n1

>  <label_value>
False

$$$$
>  <structure_as_smiles>
COc1ccc(-c2cccc(C(=O)N(C)C)c2)cc1S(=O)(=O)Nc1cccc(NCCNC(=O)c2cc(F)cc(F)c2)c1

>  <label_value>
False

$$$$
>  <structure_as_smiles>
COc1ccc(-c2cccc(C(=O)N3CCCC3)c2)cc1S(=O)(=O)Nc1cccc(NCCNC(=O)c2ccccc2Cl)c1

>  <label_value>
True

$$$$
>  <structure_as_smiles>
COc1ccc(-c2cccc(C(=O)N(C)C)c2)cc1S(=O)(=O)Nc1cccc(NCCNC(=O)c2cncc(Cl)c2)c1

>  <label_value>
False

$$$$
>  <structure_as_smiles>
COc1cccc(C(=O)NCCNc2cccc(NS(=O)(=O)c3cc(-c4cccc(OC)n4)ccc3OC)c2)c1

>  <label_value>
False

$$$$
>  <structure_as_smiles>
COc1cccc(C(=O)NCCNc2cccc(NS(=O)(=O)c3cc(-c4cc(OC)ccc4F)ccc3OC)c2)c1

>  <label_value>
False

$$$$
>  <structure_as_smiles>
COc1ccc(-c2cccc(C(=O)N3CCCCC3)c2)cc1S(=O)(=O)Nc1cccc(NCCNC(=O)c2cccnc2OC)c1

>  <label_value>
True

$$$$
>  <structure_as_smiles>
COCCN(C)C(=O)c1cccc(-c2ccc(OC)c(S(=O)(=O)Nc3cccc(NCCNC(=O)c4ccccc4OC)c3)c2)c1

>  <label_value>
True

$$$$

----------
Below, each of the molecules is paired with its reported Response (10 μM (%)) value.
experimental_target: OX2R (Homo sapiens)
Construct: expressed in transfected cells; host or cells: CHO (Chinese hamster ovary) cells constitutively expressing the OX2R gene and NFAT-luciferase (CHOOX2R)
experiment_description: Evaluation of agonist activity against OX2R (CHOOX2R cells, Fura2AM fluorescence, FDSS3000)
Assay type: cell-based
details: test compound 10 μM; relative to orexin-A as full agonist (100%); CHOOX2R cells

>  <structure_as_smiles>
COc1ccc(N(C)C)cc1C(=O)NCCNc1cccc(NS(=O)(=O)c2cc(-c3ccccc3F)ccc2OC)c1

>  <Response (10 μM (%))>
23%

$$$$
>  <structure_as_smiles>
COc1cccc(C(=O)NCCNc2cccc(NS(=O)(=O)c3cc(-c4cc(F)ccc4Cl)ccc3OC)c2)c1

>  <Response (10 μM (%))>
93%

$$$$
>  <structure_as_smiles>
COc1ccccc1C(=O)NCCNc1cccc(NS(=O)(=O)c2cc(-c3cc(Cl)ccc3Cl)ccc2OC)c1

>  <Response (10 μM (%))>
38%

$$$$
>  <structure_as_smiles>
COc1ccccc1C(=O)NCCN(C)c1cccc(NS(=O)(=O)c2cc(-c3cccc(C(=O)N(C)C)c3)ccc2OC)c1

>  <Response (10 μM (%))>
139%

$$$$
